# SYSTEM_TESTED: Hexose transporter 1 (Plasmodium falciparum)
# METHOD_SUMMARY: ST_JUDE_LEISH: Cytotoxicity at 2uM final concentration against transgenic Leishmania Mexicana promastigotes LmPfHT that are glucose transport deficient and complemented with the Plasmodium falciparum hexose transporter. Activity is measured by DNA content using SYBR green in vitro
# Format: functional
What inhibition was measured for each of the following?
Return type: number; implicit unit %.

Exam item: inhibition for `Cc1cccc2nc(-c3cccc(-c4ccc(NC(=O)CN5CCN(C)CC5)cc4)c3)[nH]c12` ?
Marked response: 3.31

Exam item: Which inhibition value belongs to `O=C1CCCN1CCCNCc1cccc(-c2cccc(-c3nc4cc(F)ccc4[nH]3)c2)c1` ?
Marked response: 1.31

Exam item: Dear colleague, I am looking for the recorded inhibition of the following compound: `Cc1cccc2nc(-c3ccc(-c4cccc(NC(=O)c5cnccc5C(F)(F)F)c4)cc3)[nH]c12`
Marked response: 10.4

Exam item: # inhibition lookup, item `Cc1cc(OCCCNc2nc(NCCc3ccc(O)cc3)nc(N3CCNCC3)n2)c(Cl)c(C)c1Cl`
Marked response: 1.22

Exam item: Which measured inhibition value corresponds to CC1CCN(C(=O)C(Cc2c[nH]c3ccccc23)NS(=O)(=O)c2ccc(Cl)cc2)CC1 (centres undefined) ?
Marked response: 1.31

Exam item: Please report the recorded inhibition for `COc1ccc2nccc([C@@H](O)CN3CCC(NC(=O)c4ccc5cc[nH]c5c4)CC3)c2c1` .
Marked response: 4.82

Exam item: // query inhibition value for entry `N=C(N)NC(=O)Nc1cc(Cl)c(Cl)c(Cl)c1`
Marked response: 4

Exam item: Fill in the blank: the reported inhibition of `N#Cc1cc(C(=O)c2cc(Cl)ccc2O)cn(-c2cccc(C(F)(F)F)c2)c1=O` is ____.
Marked response: 7.71

Exam item: Consider the compound shown here: `CCn1c(-c2nonc2N)nc2c(-c3cccc(NC(=O)Nc4ccccc4OC)c3)ncc(OCCCN)c21` What is its recorded inhibition?
Marked response: 3.41
